Target: UniProt:P49795
Sequence (P49795 whole entry, looked up, stated change not applied): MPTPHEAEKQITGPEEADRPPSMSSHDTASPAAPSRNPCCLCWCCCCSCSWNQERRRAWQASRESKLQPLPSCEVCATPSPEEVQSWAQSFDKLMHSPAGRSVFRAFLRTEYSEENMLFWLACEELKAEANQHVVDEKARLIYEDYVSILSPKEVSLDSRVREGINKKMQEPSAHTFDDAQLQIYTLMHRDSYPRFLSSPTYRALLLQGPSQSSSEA
Test: Inhibitory Assay: FCPIA Characterization of RGS Inhibitory Activity: CCG-50014 (FIG. 1) was originally identified as a potential inhibitor of RGS8 and RGS16 in a polyplex high throughput screen to identify inhibitors of the RGS-Gα interaction [4]. This activity was confirmed by analyzing the effect of CCG-50014 on several different RGS proteins with freshly reordered compound using multiplexed …
reportedProperty: IC50 (µM)
API: value field is a number in µM; no unit string.

Task: Using the record for "Cc1ccc(-n2sc(=O)n(Cc3ccc(F)cc3)c2=O)cc1" , state its measured IC50.
Output: 0.12
